compounds and their reported chromatographic logP
- PROTOCOL SUMMARY: logP(HCOOH) reported with HPLC/MS
- CONDITION SET: reversed phase HPLC column, pH 2.7, log p, method [b]: LC-MS at pH 2.7, 0.1% formic acid in water and acetonitrile, linear gradient 10% to 95% acetonitrile
Respond with the number and no other words.

Recorded chromatographic logP, per entry:
                                   compound  meas_value
0  CCCCC#Cc1ccc(F)c(CON=C(c2ccccc2)c2nnnn2C)n1 [Example 99]        4.41
1  Cn1nnnc1C(=NOCc1nc(Br)ccc1F)c1ccccc1 [Example 96]        3.27

// switching to the query compound
Ask: Record request: chromatographic logP value, item COc1ccc(CON=C(c2ccccc2)c2nnnn2C)nc1Br [Example 125]
Result: 3.13

====

- PROTOCOL SUMMARY: logP(HCOOH) reported with HPLC/MS
- CONDITION SET: method [b]: LC-MS, pH 2.7 with 0.1% formic acid in water and acetonitrile (0.1% formic acid), linear gradient 10% to 95% acetonitrile
molecules and their reported log p

Recorded log p, per entry:
                                   molecule  meas_value
0   CCCCC#Cc1nc(CON=C(c2ccccc2)n2nnnc2C)cs1    4.49^[b]
1  Cn1nnnc1C(=NOCc1cccc(C#Cc2ccccc2Cl)n1)c1ccccc1    4.36^[b]
2  CCC(=O)OCC#Cc1cccc(CON=C(c2ccccc2)c2nnnn2C)n1    3.29^[b]
3  Cn1nnnc1C(=NOCc1cccc(NCCOC2CCCCC2)n1)c1ccccc1    2.35^[b]
4  CC(C)c1ccc(C#Cc2nc(CON=C(c3ccccc3)c3nnnn3C)cs2)cc1    5.29^[b]
5  Cn1nnnc1C(=NOCc1csc(C#Cc2ccc(OC(F)(F)F)cc2)n1)c1ccccc1    4.89^[b]

Ask: Record request: log p value, item Cn1nnnc1C(=NOCc1csc(C#CCCCc2ccccc2)n1)c1cccc(F)c1
Result: 4.89^[b]

====

- PROTOCOL SUMMARY: logP(HCOOH) reported with HPLC/MS
- CONDITION SET: method [b]: LC-MS at pH 2.7, 0.1% formic acid in water and acetonitrile, linear gradient 10% to 95% acetonitrile
molecules and their reported log p

Recorded log p, per entry:
>>> df
                                   molecule  meas_value
0  Cn1nnnc1C(=NOCc1cccc(CNC(=O)C(C)(C)C)n1)c1ccccc1    2.58^[b]
1  Cn1nnnc1C(=NOCc1nc(C#CCOc2ccccc2)ccc1F)c1ccccc1    4.04^[b]
2  CC(C)NC(=O)c1cccc(CON=C(c2ccccc2)c2nnnn2C)n1    2.84^[b]
3  Cn1nnnc1C(=NOCc1ncc(C(F)(F)F)cc1Cl)c1ccccc1    3.76^[b]
4  Cc1nnnn1C(=NOCc1cccc(NC(=S)NC(C)C)n1)c1ccccc1    3.22^[b]
5  Cc1nnnn1C(=NOCc1cccc(NC(=S)NC2CCCC2)n1)c1ccccc1    3.53^[b]
6  CCCCCNC(=O)c1cccc(CON=C(c2ccccc2)n2nnnc2C)n1    3.52^[b]
7  Cc1nnnn1C(=NOCc1cccc(NC(=S)NCc2ccc(Cl)c(Cl)c2)n1)c1ccccc1    4.09^[b]

Ask: Record request: log p value, item Cn1nnnc1C(=NOCc1nc(C#CCCCc2ccccc2)ccc1F)c1ccccc1
Result: 4.84^[b]

Ask: And what about the molecule Cn1nnnc1C(=NOCc1nc(C#CCOc2ccccc2)sc1Cl)c1ccccc1 ?
Result: 4.62^[b]

Ask: And what about the molecule C#Cc1cccc(CON=C(c2ccccc2)c2nnnn2C)n1 ?
Result: 2.7^[b]

Ask: And what about the molecule Cn1nnnc1C(=NOCc1nc(C#CCc2ccccc2)ccc1F)c1ccccc1 ?
Result: 4.24^[b]

Ask: And what about the molecule Cn1nnnc1C(=NOCc1cccc(CNC(=O)Cc2ccccc2)n1)c1ccccc1 ?
Result: 2.7^[b]

Ask: And what about the molecule Cn1nnnc1C(=NOCc1nc(C#CCC2CCCC2)ccc1F)c1ccccc1 ?
Result: 4.92^[b]

Ask: And what about the molecule CCCCOC(=O)NCc1cccc(CON=C(c2ccccc2)c2nnnn2C)n1 ?
Result: 3.19^[b]

Ask: And what about the molecule Cn1nnnc1C(=NOCc1cccc(CNC(=O)CCc2ccccc2)n1)c1ccccc1 ?
Result: 2.82^[b]

Ask: And what about the molecule CC(C)C(C)NC(=O)c1cccc(CON=C(c2ccccc2)c2nnnn2C)n1 (centres unmarked) ?
Result: 3.44^[b]

====

- PROTOCOL SUMMARY: logP(HCOOH) reported with HPLC/MS
- CONDITION SET: method [b]: LC-MS, pH 2.7 with 0.1% formic acid in water and acetonitrile (0.1% formic acid), linear gradient 10% to 95% acetonitrile
ENDPOINT: log p

Recorded log p, per entry:
In [3]: df
Out[3]:
                                   molecule  endpoint  meas_value
0  COc1ccccc1C#Cc1cccc(CON=C(c2ccccc2)c2nnnn2C)n1     log p    3.89^[b]
1  Cn1nnnc1C(=NOCc1csc(C#Cc2ccc3ccccc3c2)n1)c1ccccc1     log p    4.92^[b]
2  Cn1nnnc1C(=NOCc1cccc(C#Cc2cccc(C#N)c2)n1)c1ccccc1     log p    3.69^[b]
3  COc1cccc(C#Cc2cccc(CON=C(c3ccccc3)c3nnnn3C)n2)c1     log p    4.09^[b]
4  Cn1nnnc1C(=NOCc1cccc(C#Cc2ccc(C(C)(C)C)cc2)n1)c1ccccc1     log p    5.44^[b]
5  Cn1nnnc1C(=NOCc1cccc(C#Cc2ccc(-c3ccccc3)cc2)n1)c1ccccc1     log p    5.11^[b]

Ask: Record request: log p value, item CCCC#Cc1nc(CON=C(c2cccc(F)c2)c2nnnn2C)cs1
Result: 4.09^[b]

Ask: And what about the molecule CCCC(C)C#Cc1nc(CON=C(c2ccccc2)c2nnnn2C)c(C)s1 (stereo not drawn) ?
Result: 5.06^[b]

Ask: And what about the molecule CC(C)c1ccc(C#Cc2cccc(CON=C(c3ccccc3)c3nnnn3C)n2)cc1 ?
Result: 5.14^[b]

Ask: And what about the molecule Cn1nnnc1C(=NOCc1csc(NCC2CC2)n1)c1ccccc1 ?
Result: 2.26^[b]

Ask: And what about the molecule Cn1nnnc1C(=NOCc1cccc(C#CCCC#N)n1)c1ccccc1 ?
Result: 2.7^[b]

Ask: And what about the molecule Cn1nnnc1C(=NOCc1cccc(C#CCCc2ccccc2)n1)c1ccccc1 ?
Result: 4.29^[b]

Ask: And what about the molecule Cn1nnnc1C(=NOCc1csc(C#Cc2ccc(C#N)cc2)n1)c1ccccc1 ?
Result: 3.76^[b]

Ask: And what about the molecule CCCC#Cc1nc(CON=C(c2ccccc2)n2nnnc2C)cs1 ?
Result: 4.04^[b]

Ask: And what about the molecule COc1ccc(C#Cc2nc(CON=C(c3ccccc3)c3nnnn3C)cs2)cc1 ?
Result: 4.14^[b]

Values were extracted from patent US8466176B2.
